# assay-target: Metabotropic glutamate receptor 3 (Rattus norvegicus, UniProt P31422)
# Sequence (P31422 whole entry): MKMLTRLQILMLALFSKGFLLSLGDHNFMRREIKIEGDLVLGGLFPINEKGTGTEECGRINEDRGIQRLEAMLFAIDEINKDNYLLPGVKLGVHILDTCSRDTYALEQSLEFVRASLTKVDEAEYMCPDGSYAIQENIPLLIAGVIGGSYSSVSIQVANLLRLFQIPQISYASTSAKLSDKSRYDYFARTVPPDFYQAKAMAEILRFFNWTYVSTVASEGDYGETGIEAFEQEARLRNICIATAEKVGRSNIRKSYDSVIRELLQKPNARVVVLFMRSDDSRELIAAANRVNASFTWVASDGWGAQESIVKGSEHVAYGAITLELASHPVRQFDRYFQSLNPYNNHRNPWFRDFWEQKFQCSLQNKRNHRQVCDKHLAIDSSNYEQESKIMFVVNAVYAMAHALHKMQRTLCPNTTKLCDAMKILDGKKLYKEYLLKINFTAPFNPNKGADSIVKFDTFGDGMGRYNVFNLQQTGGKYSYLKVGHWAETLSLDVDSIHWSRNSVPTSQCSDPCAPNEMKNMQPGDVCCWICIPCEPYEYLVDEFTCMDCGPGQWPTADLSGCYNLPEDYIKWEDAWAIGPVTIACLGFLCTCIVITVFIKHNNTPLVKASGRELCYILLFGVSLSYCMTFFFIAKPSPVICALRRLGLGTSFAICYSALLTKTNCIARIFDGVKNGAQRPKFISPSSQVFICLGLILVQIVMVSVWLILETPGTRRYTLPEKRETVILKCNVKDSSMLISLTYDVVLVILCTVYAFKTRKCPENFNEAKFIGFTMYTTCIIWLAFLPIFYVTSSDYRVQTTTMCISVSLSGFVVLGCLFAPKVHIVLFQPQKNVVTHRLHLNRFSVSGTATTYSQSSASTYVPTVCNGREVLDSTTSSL
# procedure-details: Inhibition of rat mGlu3 receptor transfected in HEK293 cells coexpressing mouse Galpha15 assessed as decrease in glutamate-induced calcium signaling by fluorescence plate reader analysis in presence of glutamate at EC87 concentration
# Format: functional, cell-based
pIC50: −log10 of the molar value.
endpoint-name: pIC50

Take a look at these entries with their results.
{"compound-structure": "Cn1c(=O)c2ccc(-c3cccnc3)cc2n2nc(-c3ccccc3)cc12", "pIC50": 6.78}
{"compound-structure": "Cn1c(=O)c2ccc(-c3cccnc3)cc2n2nc(-c3ccc(Cl)cc3)cc12", "pIC50": 6.19}
{"compound-structure": "Cc1cccc(-c2cc3n(C)c(=O)c4ccc(-c5cccnc5)cc4n3n2)c1", "pIC50": 6.28}
{"compound-structure": "Cn1c(=O)c2ccc(-c3ccc4ccncc4c3)cc2n2nc(-c3ccccc3)cc12", "pIC50": 5.35}

I: Cn1c(=O)c2ccc(-c3cccc(S(N)(=O)=O)c3)cc2n2nc(-c3ccccc3)cc12
II: Cn1c(=O)c2ccc(-c3cccc(S(N)(=O)=O)c3)cc2n2nc(-c3ccc(F)cc3)cc12
III: Cn1c(=O)c2ccc(-c3cncnc3)cc2n2nc(-c3ccccc3)cc12
IV: Cn1c(=O)c2ccc(-c3ccncc3)cc2n2nc(-c3ccccc3)cc12
Which order do these items take when sorted by rising pIC50? List them. # output: labels, in the requested order II, I, IV, III

---

# assay-target: Metabotropic glutamate receptor 2 (Rattus norvegicus) (UniProt P31421)
# Sequence (P31421 19-872 limits assumed): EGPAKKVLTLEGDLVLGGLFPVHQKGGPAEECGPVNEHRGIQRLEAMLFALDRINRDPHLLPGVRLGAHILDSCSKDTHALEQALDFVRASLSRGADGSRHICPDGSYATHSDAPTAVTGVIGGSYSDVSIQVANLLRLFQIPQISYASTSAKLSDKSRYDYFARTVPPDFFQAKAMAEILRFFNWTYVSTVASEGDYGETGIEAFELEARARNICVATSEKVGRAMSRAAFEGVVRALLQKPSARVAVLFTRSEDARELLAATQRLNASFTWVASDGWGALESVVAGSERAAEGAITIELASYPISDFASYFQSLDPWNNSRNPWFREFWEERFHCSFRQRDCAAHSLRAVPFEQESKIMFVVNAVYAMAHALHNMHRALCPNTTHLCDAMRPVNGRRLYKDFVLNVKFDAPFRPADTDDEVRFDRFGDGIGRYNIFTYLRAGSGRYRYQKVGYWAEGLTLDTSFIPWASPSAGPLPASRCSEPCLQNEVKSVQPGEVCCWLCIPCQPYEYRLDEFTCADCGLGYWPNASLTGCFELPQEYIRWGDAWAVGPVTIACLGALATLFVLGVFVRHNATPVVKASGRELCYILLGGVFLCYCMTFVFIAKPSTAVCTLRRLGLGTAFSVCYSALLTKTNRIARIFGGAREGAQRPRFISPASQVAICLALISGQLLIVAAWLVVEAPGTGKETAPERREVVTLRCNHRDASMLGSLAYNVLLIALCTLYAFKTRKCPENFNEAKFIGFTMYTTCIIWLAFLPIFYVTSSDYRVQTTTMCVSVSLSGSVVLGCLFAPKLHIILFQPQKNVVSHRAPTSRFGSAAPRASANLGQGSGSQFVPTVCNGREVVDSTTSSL
# procedure-details: Inhibition of rat mGlu2 receptor transfected in HEK293 cells coexpressing mouse Galpha15 assessed as decrease in glutamate-induced calcium signaling at 3 uM by fluorescence plate reader analysis in presence of glutamate at EC76 concentration
# Type: functional, cell-based
endpoint-name: inhibition (%)

// known answers, use as guide
{"compound-structure": "Cc1ccc2c(=O)n(C)c3cc(-c4ccc(Cl)cc4)nn3c2c1", "unit-name": "%", "value-measured": 11}
{"compound-structure": "Cn1c(=O)c2ccc(-c3ccccc3)cc2n2nc(-c3cccc(Br)c3)cc12", "unit-name": "%", "value-measured": 8}
{"compound-structure": "CC(=O)n1c(=O)c2ccc(-c3ccccc3)cc2n2nc(-c3ccccc3)cc12", "unit-name": "%", "value-measured": 3}
{"compound-structure": "Cn1c(=O)c2ccc(-c3ccccc3)cc2n2nc(-c3cccc(F)c3)cc12", "unit-name": "%", "value-measured": 2}
{"compound-structure": "COc1ccc(-c2ccc3c(=O)n(C)c4cc(-c5ccc(Cl)cc5)nn4c3c2)cc1", "unit-name": "%", "value-measured": 6}
{"compound-structure": "Cn1c(=O)c2ccc(-c3ccccc3)cc2n2nc(-c3ccc(F)cc3)cc12", "unit-name": "%", "value-measured": 12}
{"compound-structure": "COc1ccc(-c2ccc3c(=O)n(C)c4cc(-c5cccc(Br)c5)nn4c3c2)cc1", "unit-name": "%", "value-measured": 4}
{"compound-structure": "COc1ccc(-c2ccc3c(=O)n(C)c4cc(-c5cccc(C)c5)nn4c3c2)cc1", "unit-name": "%", "value-measured": 0}
{"compound-structure": "Cn1c(=O)c2ccc(-c3cnc4ccccc4c3)cc2n2nc(-c3ccccc3)cc12", "unit-name": "%", "value-measured": 4}
{"compound-structure": "O=c1c2ccc(-c3ccccc3)cc2n2nc(-c3ccccc3)cc2n1CCO", "unit-name": "%", "value-measured": 0}

1: Cn1c(=O)c2ccc(-c3ccc4cc[nH]c4c3)cc2n2nc(-c3ccccc3)cc12
2: Cc1ccc2c(=O)n(C)c3cc(-c4cccc(F)c4)nn3c2c1
// which entry reports the smaller inhibition, 1 or 2 ? In your reply, give the label of the chosen option. 1
(1: 9%, 2: 16%)

a: O=c1[nH]c2cc(-c3ccccc3)nn2c2cc(-c3ccccc3)ccc12
b: COc1ccc(-c2ccc3c(=O)n(C)c4cc(-c5cccc(F)c5)nn4c3c2)cc1
c: Cn1c(=O)c2ccc(-c3ccc4nccnc4c3)cc2n2nc(-c3ccccc3)cc12
d: O=c1[nH]c2cc(-c3ccccc3)nn2c2cc(-c3cccnc3)ccc12
# ascending order, key=inhibition I'd appreciate it if you listed the labels in the requested order. c, a, d, b

P: Cc1ccc2c(=O)n(C)c3cc(-c4ccccc4)nn3c2c1
Q: Cn1c(=O)c2ccc(-c3ccccc3)cc2n2nc(-c3ccc(Cl)cc3)cc12
Quick check, higher inhibition between P and Q ? In your reply, give the label of the chosen option. P

a: COc1ccc(-c2ccc3c(=O)n(C)c4cc(-c5cccc(OC)c5)nn4c3c2)cc1
b: COc1ccc(-c2ccc3c(=O)n(C)c4cc(-c5cccc(Cl)c5)nn4c3c2)cc1
Among a and b , whose measured inhibition is the smaller figure? To answer, give the label that identifies your chosen option. a
(a: 6%, b: 9%)
